Reference for the values: the supplement of paper PMC11061612

Test system: ES6 (Ewing's Sarcoma)
Assay: combination Emax (second highest fraction inhibited in the dose matrix, 72 h); higher = more inhibition; extreme values may be limits of the assay
Reported endpoint: combination Emax
Number only, please.

QUERY: Endpoint output: combination Emax of Cc1c2c(nn1C)CSCc1cc(n(C)n1)CSc1cc(c3ccccc3c1)OCCCc1c(C(=O)O)n(C)c3c-2c(Cl)ccc13 [AZD5991] + CCN(CCO)CCCOc1ccc2c(Nc3cc(CC(=O)Nc4cccc(F)c4)[nH]n3)ncnc2c1 [AZD2811] (first compound max 1 µM, 7x7, partner max 1 µM) . Value?
RESULT: 0.29

QUERY: Requested read-out: combination Emax. Entry: CC1(C)CCC(CN2CCN(c3ccc(C(=O)NS(=O)(=O)c4ccc(NCC5CCOCC5)c([N+](=O)[O-])c4)c(Oc4cnc5[nH]ccc5c4)c3)CC2)=C(c2ccc(Cl)cc2)C1 [Venetoclax] + Cn1cnc2c(F)c(Nc3ccc(Br)cc3Cl)c(C(=O)NOCCO)cc21 [Selumetinib] (first compound max 1 µM, 7x7, partner max 3 µM)
RESULT: 0.162

QUERY: Recorded combination Emax of COc1cccc(OCCCN)c1-c1cc(Nc2cnc(C#N)cn2)n[nH]1 [Prexasertib] + CCc1c2c(nc3ccc(O)cc13)-c1cc3c(c(=O)n1C2)COC(=O)[C@]3(O)CC [SN-38] (first compound max 1 µM, 7x7, partner max 0.3 µM) , please.
RESULT: 0.837

QUERY: For the compound shown here, N#Cc1cnc(Nc2cc(NC[C@H]3CNCCO3)c(C(F)(F)F)cn2)cn1 [SRA737] + Nc1ccn([C@@H]2O[C@H](CO)[C@@H](O)C2(F)F)c(=O)n1 [Gemcitabine] (first compound max 10 µM, 7x7, partner max 0.3 µM) , give the reported combination Emax.
RESULT: 0.599

QUERY: Item under review: COc1cccc(OCCCN)c1-c1cc(Nc2cnc(C#N)cn2)n[nH]1 [Prexasertib] + O=C(c1cc(Cc2n[nH]c(=O)c3ccccc23)ccc1F)N1CCN(C(=O)C2CC2)CC1 [Olaparib] (first compound max 1 µM, 7x7, partner max 10 µM) . Reported combination Emax?
RESULT: 0.58

***
QUERY: // returns reported combination Emax for input C[C@@H](c1ccc2nccn2c1)n1nnc2ncc(-c3cnn(C)c3)nc21 [Savolitinib] + CC1(C)CCC(CN2CCN(c3ccc(C(=O)NS(=O)(=O)c4ccc(NCC5CCOCC5)c([N+](=O)[O-])c4)c(Oc4cnc5[nH]ccc5c4)c3)CC2)=C(c2ccc(Cl)cc2)C1 [Venetoclax] (first compound max 1 µM, 7x7, partner max 1 µM)
RESULT: 0.179

QUERY: Recorded combination Emax of CN(CCO)CC[C@H](CSc1ccccc1)Nc1ccc(S(=O)(=O)NC(=O)c2ccc(N3CCC([C@@H](O)c4ccccc4-c4ccc(Cl)cc4)CC3)cc2)cc1S(=O)(=O)C(F)(F)F [AZD4320] + Cc1cc2ncnn2cc1Nc1ncc2c(n1)n(C1CCOCC1)c(=O)n2C [AZD7648] (first compound max 1 µM, 7x7, partner max 10 µM) , please.
RESULT: 0.268
